- System: Wild type
- procedure_details: S. aureus survival, RN4220 and DeltatarO strains – OD600, teichoic acid synthesis inhibitors, primary screen (AID 463173)
- test_parameters: S. aureus RN4220 wild type/DeltatarO growth, OD600, 18 h, screened at 18.75 µg/mL (by protocol)
The campaign covered roughly 52,000 compounds. About 1,700 (3.3%) were called active. Cut-off read from the data, not from the text of the source: active = survival mostly below about 52% (no sharp cut-off); inactive = mostly above about 56%. For the sample, actives were picked, then their nearest neighbours and some compounds at random.
Please answer using one outcome listed in active, inactive

molecule	category
Cc1cccc(Cn2nnc3c(=O)[nH]c(C4CCCN(C(=O)c5ccc(C(C)(C)C)cc5)C4)nc32)c1 (stereo not given)	inactive

Q. Dear colleague, could you share the recorded outcome for `CCc1ccc(NCc2cc3cc(OC)c(OC)cc3n(CC(=O)Nc3cc(C)ccc3C)c2=O)cc1` when you have a moment?
A. inactive

Q. Dear colleague, could you share the recorded outcome for `Clc1ccc(OCc2nc3ccccc3n2Cc2ccccc2)c(Cl)c1` when you have a moment?
A. active

----------
- Test system: Wild type
- procedure_details: S. aureus survival, RN4220 and DeltatarO strains – OD600, teichoic acid synthesis inhibitors, primary screen (AID 463173)
- test_parameters: S. aureus RN4220 wild type/DeltatarO growth, OD600, 18 h, stronger effect = lower value, screened at 18.75 µg/mL (by protocol)
The campaign covered roughly 52,000 compounds. About 1,700 (3.3%) were called active. What follows is part of a selection rich in actives, with near analogues and random picks from the rest.
Note to self: use YES only for survival readings below 80%; a reading exactly at 80% still gets NO.

As a guide, the following entries are already answered.
compound	category
CCc1ccc(C2C(C(=O)Nc3ccccc3OC)=C(C)Nc3c(C(=O)Nc4ccc(C)cc4)cnn32)cc1 (centres undefined)	YES
COc1ccccc1NC(=O)C1=C(C)Nc2c(C(=O)Nc3ccc(C)cc3)cnn2C1c1cccc(OC)c1OC (centres undefined)	YES
CCOC(=O)c1noc2ncn(CC(=O)Nc3ccc(C)c(F)c3)c(=O)c12	YES
CCc1ccc(C2C(C(=O)Nc3ccccc3)=C(C)Nc3c(C(=O)Nc4ccc(C)cc4)cnn32)cc1 (centres undefined)	YES
CCOc1ccc(NC(=O)c2cnn3c2NC(c2ccccc2)=CC3c2cccc(OC)c2OC)cc1 (centres undefined)	NO

Q. Consider the compound COc1cccc(C2C=C(c3ccc(C)cc3)Nc3c(C(=O)Nc4ccc(F)cc4)cnn32)c1OC (centres undefined) . Is its survival strictly less than 80%?
A. YES

Q. Consider the compound COc1cccc(C2C(C(=O)Nc3ccc(Cl)cc3)=C(C)Nc3c(C(=O)Nc4ccccc4)cnn32)c1OC (centres undefined) . Is its survival strictly less than 80%?
A. NO

Q. Consider the compound COc1ccc(C2C(C(=O)Nc3ccccc3)=C(C)Nc3c(C(=O)Nc4ccccc4)cnn32)cc1 (centres undefined) . Is its survival strictly less than 80%?
A. NO

----------
- System: Wild type
- procedure_details: S. aureus survival, RN4220 and DeltatarO strains – OD600, teichoic acid synthesis inhibitors, primary screen (AID 463173)
- test_parameters: S. aureus RN4220 wild type/DeltatarO growth, OD600, 18 h, stronger effect = lower value, screened at 18.75 µg/mL (by protocol)
Among all 52,000 compounds or so, about 1,700 (3.3%) were called active. The full list was thinned out, with actives kept by preference.
Exercise: for every item that follows, state its recorded survival.
Numbers only, in %.

Previously resolved entries follow.
molecule	measured_target	unit_abbrev	quantitative_result
Cc1cc(OC(C)C(=O)Nc2cccc(-c3nc4ccccc4o3)c2)cc(C)c1Cl (stereo not given)	Wild type	%	55
CCc1ccc(OCC(=O)Nc2ccc3oc(-c4ccc(OC)cc4)nc3c2)cc1	Wild type	%	79

Below is a list of molecules. For each, state its recorded survival.
1. COc1ccc(-c2nc3ccccc3o2)cc1NC(=O)CSc1ccc(Cl)cc1
2. COc1ccc(CNc2nc3c(-c4ccccc4)nnn3c3ccccc23)cc1
3. COc1ccccc1OC(C)C(=O)Nc1cccc(-c2nc3ccccc3o2)c1 (stereo not given)
4. O=c1[nH]c(SCc2cccc(Cl)c2)nc2c1CCC2
5. COc1ccc(-c2nc3ccccc3o2)cc1NC(=O)C(C)Oc1ccc(Cl)cc1Cl (stereo not given)
6. Cc1cccc(CSc2nc3c(c(=O)[nH]2)CCC3)c1
7. Cc1nnc(N2C(=O)c3oc4ccccc4c(=O)c3C2c2ccc(C(C)(C)C)cc2)s1 (stereo not given)
8. COc1cc2ccccc2cc1C(=O)Nc1ccc2oc(-c3ccc(Cl)cc3)nc2c1

A.
1. 73
2. 90
3. 3
4. 91
5. 8
6. 78
7. 129
8. 91
